Quick reference: Th-T fluorescence of Aβ42 (sheet Fig. 7a), mean of three wells of the listed items.
target: Aβ42 (Homo sapiens); experiment: Th-T (thioflavin-T) assay of Aβ42 aggregation; type: biochemical; conditions: head suffix _10 (concentration 10); reading M84
A bare number is all that is needed in reply.

Recorded results for 4 molecules are shown here.
> print(dat)
                                   molecule        tested.target  value.observed
1  C=C1CC[C@@H]2[C@](C)(CC[C@H]3O[C@H](C=C(C)C)C[C@@]23C)[C@@H]1Cc1c(OC)oc(CO)c(C)c1=O [Compound 20]  Aβ42 (Homo sapiens)           3.355
2  C=C1CC[C@@H]2[C@](C)(CC[C@H]3O[C@H](C=C(C)C)C[C@@]23C)[C@@H]1Cc1c(OC)oc(CO)c(C(=O)OC)c1=O [Compound 21]  Aβ42 (Homo sapiens)           1.428
3  C=C1CCC2C(C)(CCC=C(C)C)C(O)CCC2(C)C1Cc1c(OC)oc(CO)c(C)c1=O (centres unmarked) [Compound 12]  Aβ42 (Homo sapiens)           3.157
4  C=C1CCC2C(C)(CCC=C(C)C)C(O)CCC2(C)C1Cc1c(OC)oc(C)c(C(=O)OC)c1=O (centres unmarked) [Compound 14]  Aβ42 (Homo sapiens)           2.801

Now, please, on to the next molecule.
Looking up C=C1CCC2C(C)(CCC=C(C)C)C(O)CCC2(C)C1Cc1c(OC)oc(CO)c(C(=O)OC)c1=O (centres unmarked) [Compound 13] , I see its Th-T fluorescence of Aβ42 (sheet Fig. 7a), mean of three wells listed as 1.551

====

target: UniProt P05067; assay: Th-T (thioflavin-T) assay of Aβ42 aggregation; assay type: biochemical; conditions: head suffix _10 (concentration 10); reading M79
The entries below are paired with their reported Th-T fluorescence of Aβ42 (sheet Fig. 7a), mean of three wells.

> print(dat)
                                   molecule  value.observed
1  C=C1CCC2C(C)(CCC=C(C)C)C(O)CCC2(C)C1Cc1c(OC)oc(CO)c(C(=O)OC)c1=O (centres unmarked)          1.5579
2  C=C1CCC2C(C)(CCC=C(C)C)C(O)CCC2(C)C1Cc1c(OC)oc(C)c(C(=O)OC)c1=O (centres unmarked)           2.796
3  C=C1CC[C@@H]2[C@](C)(CC[C@H]3O[C@H](C=C(C)C)C[C@@]23C)[C@@H]1Cc1c(OC)oc(CO)c(C(=O)OC)c1=O           1.098
4  C=C1CC[C@@H]2[C@](C)(CC[C@H]3O[C@H](C=C(C)C)C[C@@]23C)[C@@H]1Cc1c(OC)oc(CO)c(C)c1=O           3.378

Now examine the next entry.
Lab note: C=C1CCC2C(C)(CCC=C(C)C)C(O)CCC2(C)C1Cc1c(OC)oc(CO)c(C)c1=O (centres unmarked) gave Th-T fluorescence of Aβ42 (sheet Fig. 7a), mean of three wells of 3.216

====

The following compounds are listed with their measured Th-T fluorescence, mean of three wells (Fig. 7a) values.
molecular target: Aβ42 (Homo sapiens, UniProt P05067); assay: Th-T (thioflavin-T) assay of Aβ42 aggregation; format: biochemical; details: column suffix _50; measurement M27
Sequence (P05067 672-713): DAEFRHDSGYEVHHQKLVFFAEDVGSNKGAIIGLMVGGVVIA
Reply with just the number.

Example results:
> print(dat)
                                   compound  value.observed
1  C=C1CCC2C(C)(CCC=C(C)C)C(O)CCC2(C)C1Cc1c(OC)oc(CO)c(C)c1=O (centres unmarked) [Compound 12]          1.6183
2  C=C1CC[C@@H]2[C@](C)(CC[C@H]3O[C@H](C=C(C)C)C[C@@]23C)[C@@H]1Cc1c(OC)oc(CO)c(C(=O)OC)c1=O [Compound 21]          0.2118

Short answer on Aβ42 (Homo sapiens, UniProt P05067) for C=C1CCC2C(C)(CCC=C(C)C)C(O)CCC2(C)C1Cc1c(OC)oc(C)c(C(=O)OC)c1=O (centres unmarked) [Compound 14] , Th-T fluorescence, mean of three wells (Fig. 7a): 0.8688

Short answer on Aβ42 (Homo sapiens, UniProt P05067) for C=C1CC[C@@H]2[C@](C)(CC[C@H]3O[C@H](C=C(C)C)C[C@@]23C)[C@@H]1Cc1c(OC)oc(CO)c(C)c1=O [Compound 20] , Th-T fluorescence, mean of three wells (Fig. 7a): 2.2221

Lab note: compound C=C1CCC2C(C)(CCC=C(C)C)C(O)CCC2(C)C1Cc1c(OC)oc(CO)c(C(=O)OC)c1=O (centres unmarked) [Compound 13] tested on Aβ42 (Homo sapiens, UniProt P05067); recorded Th-T fluorescence, mean of three wells (Fig. 7a) was 0.3638
